Data origin, for the record: the supplement of paper PMC11616607

Test system: JHOS2
methodDescription: drug sensitivity score (DSS) from 5-point dose-response viability curve (DSS (area-under-curve based score)); higher = more sensitive (stronger growth inhibition or killing); extreme values may be limits of the assay
reportedConditions: exposure time: 72 h; concentration range: 5 concentrations over 10,000-fold range

molecule	drug sensitivity score
CC(C)n1nc(-c2ccc3oc(N)nc3c2)c2c(N)ncnc21 [Sapanisertib]	7.4
Cn1cc(C2=C(c3cn(C4CCN(Cc5ccccn5)CC4)c4ccccc34)C(=O)NC2=O)c2ccccc21 [Enzastaurin]	0.1
S=C(NCc1ccc2c(c1)OCO2)N1CCN(c2ncnc3c2oc2ccccc23)CC1 [Amuvatinib]	0
NCC(=O)Nc1ccc(-n2nc(C(F)(F)F)cc2-c2ccc3c(ccc4ccccc43)c2)cc1	1.5
COc1cc2nccc(Oc3ccc(NC(=O)Nc4cc(C)on4)c(Cl)c3)c2cc1OC [Tivozanib]	0.2
Nc1cccc2c1C(=O)N(C1CCC(=O)NC1=O)C2=O (stereo not given) [Pomalidomide]	0
COC(=O)C[C@](O)(CCCC(C)(C)O)C(=O)O[C@@H]1C(OC)=C[C@]23CCCN2CCc2cc4c(cc2[C@H]13)OCO4 [Omacetaxine]	19.3
CS(=O)(=O)c1ccc(C(=O)Nc2ccc(Cl)c(-c3ccccn3)c2)c(Cl)c1 [Vismodegib]	0
CC[C@@](C)(Nc1ccnc(-c2c[nH]c3ncccc23)n1)C(=O)NCC(F)(F)F [Decernotinib]	0
Cc1[nH]c2ccccc2c1CCNCc1ccc(/C=C/C(=O)NO)cc1 [Panobinostat]	13.1
O=c1[nH]cc(F)c(=O)[nH]1 [Fluorouracil]	0
Cc1nc(NC(=O)N2CCC[C@H]2C(N)=O)sc1-c1ccnc(C(C)(C)C(F)(F)F)c1 [Alpelisib]	0.6
CN(c1ncccc1CNc1nc(Nc2ccc3c(c2)CC(=O)N3)ncc1C(F)(F)F)S(C)(=O)=O	5.1
CC(=O)Nc1ccc(C(=O)Nc2ccccc2N)cc1 [Tacedinaline]	0
Cc1nc(C(=O)NCC(=O)O)c(O)c2ccc(Oc3ccccc3)cc12 [Roxadustat]	0.1
COc1c(C)cnc(Cn2cnc3c(Cl)nc(N)nc32)c1C [BIIB021]	20.6
CC[C@H](NC(=O)[C@H](C)NC)C(=O)N1C[C@@H](O)C[C@H]1Cc1c(-c2[nH]c3cc(F)ccc3c2C[C@@H]2C[C@H](O)CN2C(=O)[C@H](CC)NC(=O)[C@H](C)NC)[nH]c2cc(F)ccc12 [Birinapant]	5.6
CNC(=O)c1cccc2cc(Oc3ccnc4cc(OCC5(N)CC5)c(OC)cc34)ccc12 [Lucitanib]	0.4
O=C(O)CC[C@H]1CC[C@@](c2cc(F)ccc2F)(S(=O)(=O)c2ccc(Cl)cc2)CC1 [MK-0752]	0
Cc1nc(Nc2ncc(C(=O)Nc3c(C)cccc3Cl)s2)cc(N2CCN(CCO)CC2)n1 [Dasatinib]	3.5
Cc1cc(Nc2ncc(Cl)c(Nc3ccccc3S(=O)(=O)C(C)C)n2)c(OC(C)C)cc1C1CCNCC1 [Ceritinib]	0
COc1cccc2c1C(=O)c1c(O)c3c(c(O)c1C2=O)C[C@@](O)(/C(CO)=N/NC(=O)CCCCCN1C(=O)C=CC1=O)C[C@@H]3O[C@H]1C[C@H](N)[C@H](O)[C@H](C)O1 [Aldoxorubicin]	7.3
Cn1ncc(Cl)c1-c1cc(C(=O)N[C@H](CN)Cc2ccc(F)c(F)c2)oc1Cl [Uprosertib]	0
CC(C)(C)Cn1c(N)nc2ccc(-c3[nH]c(C(C)(C)C)nc3-c3ccc(F)cc3)nc21 [Ralimetinib]	1.8
Nc1ccccc1NC(=O)c1ccc(CNC(=O)OCc2cccnc2)cc1 [Entinostat]	4.7
C[C@H]1C[C@@H](n2c(Nc3ccc(OC(F)(F)F)cc3)nc3cc(CCC(=O)O)ccc32)CC(C)(C)C1	0
CC(C)C[C@H](NC(=O)[C@@H](COC(C)(C)C)NC(=O)[C@H](Cc1ccc(O)cc1)NC(=O)[C@H](CO)NC(=O)[C@H](Cc1c[nH]c2ccccc12)NC(=O)[C@H](Cc1cnc[nH]1)NC(=O)[C@@H]1CCC(=O)N1)C(=O)N[C@@H](CCCNC(=N)N)C(=O)N1CCC[C@H]1C(=O)NNC(N)=O [Goserelin]	0
C=C(c1ccc(C(=O)O)cc1)c1cc2c(cc1C)C(C)(C)CCC2(C)C [Bexarotene]	1.3
C[C@@H]1C=C2C(=O)O[C@@H]3CC[C@H](C1)[C@]23O [Galiellalactone]	5.6
COc1cccc2c1C(=O)c1c(O)c3c(c(O)c1C2=O)C[C@@](O)(C(=O)CO)C[C@@H]3O[C@H]1C[C@H](N)[C@H](O)[C@H](C)O1 [Doxorubicin]	5.9
